- Test system: PPARg homodimer (NR concentration 180 nM)
- ASSAY: PBM binding z-score (relative to random genomic background probes); higher = stronger binding; sequences stand for … in GC…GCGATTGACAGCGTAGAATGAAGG
Returns class 1 if the recorded PBM binding z-score is greater than or equal to 2, and class 0 otherwise.

Input line: Identify whether the reported PBM binding z-score of the following sequence is 2 or greater: `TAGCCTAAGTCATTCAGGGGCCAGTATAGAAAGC`
Output line: class 0

Input line: Identify whether the reported PBM binding z-score of the following sequence is 2 or greater: `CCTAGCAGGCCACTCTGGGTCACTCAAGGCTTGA`
Output line: class 0

Input line: Identify whether the reported PBM binding z-score of the following sequence is 2 or greater: `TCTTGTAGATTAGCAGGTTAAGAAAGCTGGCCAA`
Output line: class 0

Input line: Identify whether the reported PBM binding z-score of the following sequence is 2 or greater: `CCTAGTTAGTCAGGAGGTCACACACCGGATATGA`
Output line: class 1

----------
- System: PPARa:RXRa (NR concentration 270 nM, RXRa partner concentration 90 nM)
- ASSAY: PBM binding z-score (relative to random genomic background probes); higher = stronger binding; sequences stand for … in GC…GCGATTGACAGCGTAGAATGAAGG
Can you tell me PBM binding z-score for the items I'm about to list?
Lab note: record the figure alone, no unit after it.

Input line: // returns reported PBM binding z-score for input `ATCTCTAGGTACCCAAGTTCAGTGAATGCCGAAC`
Output line: 0.625

Input line: // returns reported PBM binding z-score for input `GATACAGGGTCAGCTAGAGGCCAGAGAATGGAAA`
Output line: 4.65

Input line: // returns reported PBM binding z-score for input `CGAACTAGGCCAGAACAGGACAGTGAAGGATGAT`
Output line: 0.499

Input line: // returns reported PBM binding z-score for input `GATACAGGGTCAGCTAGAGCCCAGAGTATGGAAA`
Output line: 4.59

Input line: // returns reported PBM binding z-score for input `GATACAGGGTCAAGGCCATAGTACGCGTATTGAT`
Output line: 5.51

Input line: // returns reported PBM binding z-score for input `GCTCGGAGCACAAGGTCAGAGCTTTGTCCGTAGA`
Output line: 2.34

Input line: // returns reported PBM binding z-score for input `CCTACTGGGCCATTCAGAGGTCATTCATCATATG`
Output line: 3.72

Input line: // returns reported PBM binding z-score for input `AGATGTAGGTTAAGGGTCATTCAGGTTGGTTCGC`
Output line: 6.45

Input line: // returns reported PBM binding z-score for input `CCTACTGGGCCAAGGTCATTGAACAGTCAAAGCA`
Output line: 4.19

Input line: // returns reported PBM binding z-score for input `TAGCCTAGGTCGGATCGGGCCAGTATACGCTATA`
Output line: -0.324

Input line: // returns reported PBM binding z-score for input `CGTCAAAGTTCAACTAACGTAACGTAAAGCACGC`
Output line: 4.99

Input line: // returns reported PBM binding z-score for input `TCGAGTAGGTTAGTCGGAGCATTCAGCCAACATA`
Output line: 0.0631

Input line: // returns reported PBM binding z-score for input `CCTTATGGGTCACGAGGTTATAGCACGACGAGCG`
Output line: 5.75

Input line: // returns reported PBM binding z-score for input `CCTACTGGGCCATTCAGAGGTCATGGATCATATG`
Output line: 4.54

Input line: // returns reported PBM binding z-score for input `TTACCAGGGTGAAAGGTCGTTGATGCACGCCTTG`
Output line: 5.36

Input line: // returns reported PBM binding z-score for input `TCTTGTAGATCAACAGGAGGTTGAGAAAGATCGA`
Output line: 0.467

Input line: // returns reported PBM binding z-score for input `GCTTGTGGATCAAGGTTAAGAAAGACTAAGCTAA`
Output line: 1.52

Input line: // returns reported PBM binding z-score for input `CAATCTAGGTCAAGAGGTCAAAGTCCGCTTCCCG`
Output line: 6.48

Input line: // returns reported PBM binding z-score for input `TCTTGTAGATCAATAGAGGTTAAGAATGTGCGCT`
Output line: 1.91

Input line: // returns reported PBM binding z-score for input `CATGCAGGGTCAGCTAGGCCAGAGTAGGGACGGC`
Output line: 4.36

Input line: // returns reported PBM binding z-score for input `TAGCCTAGGTTATTCAGGGGCCAGTATAGAAAGC`
Output line: 0.523

Input line: // returns reported PBM binding z-score for input `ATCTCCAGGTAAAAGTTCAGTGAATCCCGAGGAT`
Output line: 3.5

Input line: // returns reported PBM binding z-score for input `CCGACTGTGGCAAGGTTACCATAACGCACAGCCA`
Output line: 1.07

Input line: // returns reported PBM binding z-score for input `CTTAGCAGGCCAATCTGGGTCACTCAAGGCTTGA`
Output line: 3.08

Input line: // returns reported PBM binding z-score for input `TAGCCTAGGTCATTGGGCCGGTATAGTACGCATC`
Output line: 3.43

Input line: // returns reported PBM binding z-score for input `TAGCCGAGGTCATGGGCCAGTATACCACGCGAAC`
Output line: 6.28

----------
Can you tell me PBM binding z-score for the items I'm about to list?
- System: PPARa:RXRa (NR concentration 270 nM, RXRa partner concentration 90 nM)
- ASSAY: PBM binding z-score (relative to random genomic background probes); higher = stronger binding; sequences stand for … in GC…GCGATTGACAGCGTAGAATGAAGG

Input line: // returns reported PBM binding z-score for input `GCTCGGAGGACAAGGTGAGAGCTTTGTCCGTAGA`
Output line: -0.0348

Input line: // returns reported PBM binding z-score for input `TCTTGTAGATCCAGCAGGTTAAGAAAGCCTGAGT`
Output line: 0.342

Input line: // returns reported PBM binding z-score for input `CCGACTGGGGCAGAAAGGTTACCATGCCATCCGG`
Output line: 2.23

Input line: // returns reported PBM binding z-score for input `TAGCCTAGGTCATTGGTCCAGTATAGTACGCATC`
Output line: 3.56

Input line: // returns reported PBM binding z-score for input `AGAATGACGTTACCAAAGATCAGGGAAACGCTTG`
Output line: -0.289

Input line: // returns reported PBM binding z-score for input `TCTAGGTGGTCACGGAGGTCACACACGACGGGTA`
Output line: 4.01

----------
- Test system: LXRa homodimer (NR concentration 270 nM)
- ASSAY: PBM binding z-score (relative to random genomic background probes); higher = stronger binding; sequences stand for … in GC…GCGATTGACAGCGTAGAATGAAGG
Binned PBM binding z-score; ranges: class 0 = under -0.5, class 1 = from -0.5 up to 0.4, class 2 = 0.4 and over

Input line: Any idea which band `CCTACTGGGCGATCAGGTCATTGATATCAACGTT` is in?
Output line: class 2

Input line: Any idea which band `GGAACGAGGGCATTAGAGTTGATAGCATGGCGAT` is in?
Output line: class 1

Input line: Any idea which band `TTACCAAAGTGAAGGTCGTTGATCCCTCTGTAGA` is in?
Output line: class 1

Input line: Any idea which band `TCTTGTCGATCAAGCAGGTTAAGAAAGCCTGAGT` is in?
Output line: class 0

Input line: Any idea which band `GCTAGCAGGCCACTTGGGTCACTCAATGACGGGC` is in?
Output line: class 0

Input line: Any idea which band `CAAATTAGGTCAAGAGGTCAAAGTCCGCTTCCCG` is in?
Output line: class 2

Input line: Any idea which band `ACTAGCAGGCCAAGTTTGGGTCCCTCAAACAAAG` is in?
Output line: class 0

Input line: Any idea which band `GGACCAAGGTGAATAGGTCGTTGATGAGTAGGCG` is in?
Output line: class 1

Input line: Any idea which band `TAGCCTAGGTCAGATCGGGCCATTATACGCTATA` is in?
Output line: class 1

Input line: Any idea which band `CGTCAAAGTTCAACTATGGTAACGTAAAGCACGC` is in?
Output line: class 2

----------
- Tested on: RARg:RXRa (NR concentration 270 nM, RXRa partner concentration 90 nM)
- ASSAY: PBM binding z-score (relative to random genomic background probes); higher = stronger binding; sequences stand for … in GC…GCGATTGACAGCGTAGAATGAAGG
Can you tell me PBM binding z-score for the items I'm about to list?
Lab note: record the figure alone, no unit after it.

Input line: // returns reported PBM binding z-score for input `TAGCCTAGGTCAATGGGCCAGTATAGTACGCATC`
Output line: 3.64

Input line: // returns reported PBM binding z-score for input `CGTCCAAGGTCAAAGGTCAGTGTAGAGATGACGG`
Output line: 8.64

Input line: // returns reported PBM binding z-score for input `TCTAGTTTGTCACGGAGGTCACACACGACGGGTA`
Output line: 4.3

Input line: // returns reported PBM binding z-score for input `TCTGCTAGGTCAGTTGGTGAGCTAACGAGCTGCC`
Output line: 2.27

Input line: // returns reported PBM binding z-score for input `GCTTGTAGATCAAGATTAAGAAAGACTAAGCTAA`
Output line: -0.362

Input line: // returns reported PBM binding z-score for input `CGTCCAAGGTCATAGGAGGTCCGTGAAGACAGAT`
Output line: 5.84

Input line: // returns reported PBM binding z-score for input `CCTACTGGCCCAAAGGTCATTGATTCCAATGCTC`
Output line: 4.89

Input line: // returns reported PBM binding z-score for input `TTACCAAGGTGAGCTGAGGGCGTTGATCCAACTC`
Output line: -0.0631

Input line: // returns reported PBM binding z-score for input `CCATACAGGTGAGAAGGTAACTCAGCCTCGATTA`
Output line: 0.662

Input line: // returns reported PBM binding z-score for input `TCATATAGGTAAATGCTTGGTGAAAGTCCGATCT`
Output line: 0.052

Input line: // returns reported PBM binding z-score for input `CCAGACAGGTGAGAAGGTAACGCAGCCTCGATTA`
Output line: 0.793

Input line: // returns reported PBM binding z-score for input `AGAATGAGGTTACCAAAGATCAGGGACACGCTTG`
Output line: 2.29

Input line: // returns reported PBM binding z-score for input `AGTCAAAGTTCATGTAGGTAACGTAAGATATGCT`
Output line: 5.31

Input line: // returns reported PBM binding z-score for input `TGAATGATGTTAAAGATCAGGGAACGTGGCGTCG`
Output line: 0.221

Input line: // returns reported PBM binding z-score for input `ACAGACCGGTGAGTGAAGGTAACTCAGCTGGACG`
Output line: -0.114

Input line: // returns reported PBM binding z-score for input `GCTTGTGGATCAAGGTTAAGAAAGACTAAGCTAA`
Output line: 0.34

Input line: // returns reported PBM binding z-score for input `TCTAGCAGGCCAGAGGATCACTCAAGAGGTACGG`
Output line: -0.277

Input line: // returns reported PBM binding z-score for input `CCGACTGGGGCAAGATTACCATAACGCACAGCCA`
Output line: 0.185

Input line: // returns reported PBM binding z-score for input `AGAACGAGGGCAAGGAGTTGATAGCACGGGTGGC`
Output line: 1.21

Input line: // returns reported PBM binding z-score for input `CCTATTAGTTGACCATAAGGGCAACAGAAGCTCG`
Output line: 1.46

Input line: // returns reported PBM binding z-score for input `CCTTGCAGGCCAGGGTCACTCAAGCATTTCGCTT`
Output line: 3.21

Input line: // returns reported PBM binding z-score for input `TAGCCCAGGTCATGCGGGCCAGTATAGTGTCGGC`
Output line: 4.07

Input line: // returns reported PBM binding z-score for input `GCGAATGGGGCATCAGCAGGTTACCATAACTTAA`
Output line: 0.664

Input line: // returns reported PBM binding z-score for input `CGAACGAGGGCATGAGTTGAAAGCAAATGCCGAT`
Output line: 1.52

Input line: // returns reported PBM binding z-score for input `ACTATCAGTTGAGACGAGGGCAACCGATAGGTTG`
Output line: 0.732

Input line: // returns reported PBM binding z-score for input `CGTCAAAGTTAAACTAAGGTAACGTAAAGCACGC`
Output line: 0.536
